- Test system: HCT-116 colon
- ASSAY TEXT: NCI tumour cell line growth inhibition, 48 h
Would you please tag the item yes when its TGI is 5 µM or above, and no when it is below?

Check the entry `CN1CCN(Cc2ccc(NC(=O)c3cncc(C#Cc4c(N)ncc5c(F)cccc45)c3)cc2C(F)(F)F)CC1` : does TGI equal or exceed 5 µM? no

Query CCC(=O)N(c1ccccc1)C(C)CN1CCC(O)(c2cccc(C(F)(F)F)c2)CC1 (stereo unspecified) next yes

Query `CC(C)C(=O)Nc1ccc(-c2nc(-c3cccc(OCCN4CCOCC4)c3)c(-c3ccnc(Br)c3)[nH]2)cc1` next yes

Query C=C[C@]1(C)CC(=O)C(C(C)C=O)[C@]12C(=O)Oc1cccc(C)c1C2=O (stereo partly specified) next yes

Query `O=C1C=CC(=O)c2c(O)c(NCCO)c(Cl)c(O)c21` next no

Query `Cc1cccc2c(N)c3cccc(C(=O)NCC[N+](C)(C)Cc4ccc(S(C)(=O)=O)cc4)c3nc12` next yes

Query `CCOC(=O)Nc1ccc2nc(N3CCCCCC3)sc2c1` next yes

Query N#CC(C(=O)/C(=N/NC(=O)c1ccccc1O)C(C#N)c1ccc(Br)cc1)c1ccc(Br)cc1 (stereo unspecified) next yes

Query Cc1nn(C(=O)c2ccc(Cl)cc2)c2c1C(c1ccccc1O)SC(N)=N2 (stereo unspecified) next yes

Query CC1=NNC(=O)C1C1CC(c2c[nH]c3ccccc23)=NN(c2ccccc2)C1=O (stereo unspecified) next yes

Next:
Check the entry `NC(=O)c1cc(I)ccc1NC(=O)/C=C/c1ccccc1Cl` : does TGI equal or exceed 5 µM? yes

Query `Cc1cc(N(CCC#N)CCC#N)ccc1/C=C1N=C(/C=C/c2ccccc2)N(c2ccc(S(N)(=O)=O)cc2)C\1=O` next yes

Query N#CC(C(=O)CCC(=O)Nc1ccc(Cl)cc1)c1ccc(Cl)cc1 (stereo unspecified) next yes
